Test system: ULK3
pKd: −log10 of the molar value.
Metric: pKd

Give me measured pKd, please, for this compound: COc1ccc(-c2coc3ccc(-c4nnc(SCc5cccc(C#N)c5)o4)cc23)cc1
< 5.00

###

Tested on: FGFR3
Run Parameters: concentration: 1 μM, replicates: in singlicate; n = 1
Metric: %Inh (%)
Answers are plain numbers, in %.

Examples with answers:
O=c1cc(N2CCOCC2)nc2n(Cc3ccc(F)c(Cl)c3)ccn12 = 0
Cc1cccc(-c2nc(Nc3ccc4c(cnn4C)c3)c3ccccc3n2)n1 = 4

Now turn to the next compound.
Give me measured %Inh, please, for this compound: Nc1n[nH]c2nnc(-c3ccccc3)c(-c3ccccc3)c12
32

###

System: PRKCD
Metric: Kd

Give me measured Kd, please, for this compound: FC(F)(F)c1ccc(-c2ncn(CCCN3CCOCC3)c2-c2ccncc2)cc1 [SB-217780]
> 10 µM

###

Please go through the items and note down their %Inh.
Test system: PIP5K2C
Construct: gene PIP4K2C
Run Parameters: concentration: 1 μM, replicates: in singlicate; n = 1

Examples with answers:
Cl.NS(=O)(=O)c1cccc(Nc2cc(-c3ccc(F)cc3)n[nH]2)c1 [GW824645] = 0%
Nc1ncnc2c1ncn2-c1cccc2ccccc12 [SKF-97184] = 0%
O=c1cc(N2CCOCC2)nc2n(Cc3ccc(F)c(Cl)c3)ccn12 [GSK2297099] = 0%
COc1cc2nccc(Nc3cccc(Oc4ccccc4)c3)c2cc1OC.Cl [GW284543] = 8%
Nc1nc(-c2ccccc2F)c(-c2ccnc3ccccc23)s1 [GW560459] = 59%

Report %Inh for every entry below.
1. OCCCNc1nccc(-c2c(-c3cccc(C(F)(F)F)c3)nn3cc(C(F)(F)F)ccc23)n1 [GW630813]
2. Cc1nn2c(=O)cc(N3CCOCC3)nc2n1Cc1cccc(Cl)c1Cl [GSK2342769]
3. CCC(=O)c1c(-c2ccccc2)c2cc(Cl)ccc2c(=O)n1Cc1ccc(C(=O)O)cc1
4. CCCC(=O)Nc1n[nH]c2ncc(-c3cccc4ccccc34)cc12 [SB-642057]
5. CCn1c(-c2nonc2N)nc2ccccc21 [SB-693162/GW549034]
6. COc1cc2ncn(-c3cc(OCCCc4ccccc4)c(C(N)=O)s3)c2cc1OC [GSK205189]

1. 38%
2. 1%
3. 16%
4. 13%
5. 0%
6. 9%

Report %Inh for every entry below.
1. COc1cc2ncn(-c3cc(OCc4ccncc4)c(C(N)=O)s3)c2cc1OC [GSK336313]
2. Nc1ncnc2c1ncn2-c1ccc(Cl)cc1 [AH2635]
3. O=C(NCc1cccs1)c1cc(C(=O)c2c(Cl)cccc2Cl)c[nH]1 [GW823670]
4. O=C(Nc1n[nH]c2nc(-c3ccccc3)c(Br)cc12)C1CC1 [SB-708998]
5. COc1cc2ncn(-c3cc(OCc4ccc(S(C)(=O)=O)cc4)c(C(N)=O)s3)c2cc1OC [GW869979]
6. COC(=O)c1c(-c2ccccc2)c2cc(Br)ccc2c(=O)n1Cc1ccc(NC(=O)CCC(=O)O)cc1

["0%", "23%", "0%", "0%", "0%", "0%"]

Report %Inh for every entry below.
1. COc1cc2ncn(-c3cc(OCc4ccncc4Br)c(C(N)=O)s3)c2cc1OC [GW854278]
2. Cl.c1ccc(Cn2cnc3cc(Nc4ncnc5ccccc45)ccc32)cc1 [GW272142]
3. Nc1n[nH]c2nnc(-c3ccccc3)c(-c3ccccc3)c12 [GW554060]
4. Cc1ccccc1COc1cc(-n2cnc3cc(Cl)ccc32)sc1C(N)=O [GW813349]
5. Cn1c(=O)c(F)c(Nc2ccc(I)cc2F)c2c(=O)n(OC[C@H](O)CO)cnc21
6. COc1ccc(-c2coc3ccc(-c4nnc(SCc5cccc(C#N)c5)o4)cc23)cc1
7. O=C(NCCNc1ccnc(Nc2ccc(F)cc2)n1)Nc1ccc2c(c1)OCO2 [GSK1379882]

["81%", "17%", "14%", "24%", "12%", "9%", "24%"]

Report %Inh for every entry below.
1. COC(=O)c1c(-c2ccccc2)c2cc(C)ccc2c(=O)n1Cc1ccccc1
2. COc1cc(OC)cc(-c2cc3cnc(N)nc3nc2NC(=O)NC(C)(C)C)c1
3. CCS(=O)c1ccc(-c2coc3ccc(-c4nnc(C)o4)cc23)cc1 (stereo not drawn)

1: 1%; 2: 0%; 3: 93%
